# SYSTEM_TESTED: EIF2AK3 (PERK) catalytic domain (amino acids 536-1116) (Homo sapiens (Human), UniProt Q9NZJ5)
# Sequence (Q9NZJ5 536-1116): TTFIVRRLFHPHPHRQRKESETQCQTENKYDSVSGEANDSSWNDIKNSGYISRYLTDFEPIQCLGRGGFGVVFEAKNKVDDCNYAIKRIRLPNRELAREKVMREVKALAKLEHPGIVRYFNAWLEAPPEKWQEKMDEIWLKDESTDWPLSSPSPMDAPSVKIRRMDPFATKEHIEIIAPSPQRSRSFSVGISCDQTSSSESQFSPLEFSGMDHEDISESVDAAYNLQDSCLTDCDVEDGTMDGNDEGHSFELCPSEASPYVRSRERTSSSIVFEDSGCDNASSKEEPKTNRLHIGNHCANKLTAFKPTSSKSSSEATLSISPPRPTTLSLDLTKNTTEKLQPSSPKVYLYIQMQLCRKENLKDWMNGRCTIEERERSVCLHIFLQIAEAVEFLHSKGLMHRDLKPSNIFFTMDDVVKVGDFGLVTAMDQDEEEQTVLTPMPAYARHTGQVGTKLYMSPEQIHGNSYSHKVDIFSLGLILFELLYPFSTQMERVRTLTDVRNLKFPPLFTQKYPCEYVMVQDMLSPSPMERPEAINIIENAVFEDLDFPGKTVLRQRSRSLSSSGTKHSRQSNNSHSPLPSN
# PROTOCOL_DESCRIPTION: PERK in vitro activity assay (isolated), TR-FRET kinase assay
# CONDITION_LABEL: isolated PERK enzyme, 1.5 μM ATP, GFP-eIF2a substrate; read-out: Biochemical IC50
PROPERTY_LABEL: IC50

Query: Determine its reported IC50: CC(C)NC(=O)c1cc(-c2ccc(NC(=O)C(O)c3cc(F)cc(F)c3)cc2C(F)(F)F)cnc1N (stereo not shown) [Example 37]
Response: 101 to 250 nM

Query: Please list IC50 recorded for the molecule Cc1cc(NC(=O)C(O)c2cc(F)cc(F)c2)ccc1-c1cnc(N)c(C(=O)NCC(C)C)c1 (stereo not shown) [Example 20]
Response: 1 to 25 nM

Query: Note down IC50 recorded for Cc1cc(NC(=O)C(O)c2cc(F)cc(F)c2)ccc1-c1cnc(N)c(C(=O)NC2COC2)c1 (stereo not shown) [Example 25]
Response: 26 to 50 nM
